- Tested on: ATP;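 note: ATP exposure 15 min at 22 °C before imaging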
- test name: switch fluorescence ratio, 500 uM ATP over buffer (Cy3 cluster intensity, sum of 5 cycles each) (fold (ratio)); higher = stronger signal-on switching upon ATP binding; sequences stand for … in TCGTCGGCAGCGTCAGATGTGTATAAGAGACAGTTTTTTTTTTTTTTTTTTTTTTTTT…TC
- assay context: aptamer strand: ATP DNA aptamer (quencher-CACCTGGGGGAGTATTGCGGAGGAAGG + anchor), 100 nM annealed; ATP concentration: 500 uM
observable: switch fluorescence ratio
A bare number is all that is needed in reply.

Answered examples (2):
Lab note: measured switch fluorescence ratio of GGGGGTTCAT was 0.979

Lab note: measured switch fluorescence ratio of TTTATCCGCC was 1.77

// below: switch fluorescence ratio requested for another sequence
Lab note: measured switch fluorescence ratio of GGGGTATAGG was 0.975

###

- System: ATP;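 note: ATP exposure 15 min at 22 °C before imaging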
- test name: switch fluorescence ratio, 500 uM ATP over buffer (Cy3 cluster intensity, sum of 5 cycles each) (fold (ratio)); higher = stronger signal-on switching upon ATP binding; sequences stand for … in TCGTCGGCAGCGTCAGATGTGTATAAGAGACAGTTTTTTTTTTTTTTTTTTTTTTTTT…TC
- assay context: aptamer strand: ATP DNA aptamer (quencher-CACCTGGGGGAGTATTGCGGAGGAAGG + anchor), 100 nM annealed; ATP concentration: 500 uM
observable: switch fluorescence ratio
A bare number is all that is needed in reply.

Lab note: measured switch fluorescence ratio of CGAAGGGCTA was 1.15

Lab note: measured switch fluorescence ratio of GCGGGGAATT was 1.02

Lab note: measured switch fluorescence ratio of TTATCGAGGA was 0.973

Lab note: measured switch fluorescence ratio of GGGGGCAGCC was 1.05

Lab note: measured switch fluorescence ratio of ACTCATGTAA was 1.03

Further cases:
Lab note: measured switch fluorescence ratio of TATGTGTCAG was 0.977

###

- Test system: ATP;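 note: ATP exposure 15 min at 22 °C before imaging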
- test name: switch fluorescence ratio, 500 uM ATP over buffer (Cy3 cluster intensity, sum of 5 cycles each) (fold (ratio)); higher = stronger signal-on switching upon ATP binding; sequences stand for … in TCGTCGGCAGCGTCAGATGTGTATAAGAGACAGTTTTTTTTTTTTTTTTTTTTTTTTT…TC
- assay context: aptamer strand: ATP DNA aptamer (quencher-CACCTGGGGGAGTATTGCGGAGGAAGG + anchor), 100 nM annealed; ATP concentration: 500 uM
observable: switch fluorescence ratio
A bare number is all that is needed in reply.

Answered examples (3):
The reported ATP switch fluorescence ratio of TTGTGAATTA is 0.982

The reported ATP switch fluorescence ratio of AGAGGAAAGG is 1.02

The reported ATP switch fluorescence ratio of AAAAGGTTGG is 0.997

// below: switch fluorescence ratio requested for another sequence
The reported ATP switch fluorescence ratio of TAGGGGGGAA is 1

###

// switch fluorescence ratio lookup, one value per entry
- Tested on: ATP;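 note: ATP exposure 15 min at 22 °C before imaging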
- test name: switch fluorescence ratio, 500 uM ATP over buffer (Cy3 cluster intensity, sum of 5 cycles each) (fold (ratio)); higher = stronger signal-on switching upon ATP binding; sequences stand for … in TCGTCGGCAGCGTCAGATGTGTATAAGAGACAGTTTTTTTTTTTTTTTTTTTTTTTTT…TC
- assay context: aptamer strand: ATP DNA aptamer (quencher-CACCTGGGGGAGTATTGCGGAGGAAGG + anchor), 100 nM annealed; ATP concentration: 500 uM
A bare number is all that is needed in reply.

The reported ATP switch fluorescence ratio of GATCGAGTTA is 1.03

The reported ATP switch fluorescence ratio of AGTGGTTCGG is 0.993

The reported ATP switch fluorescence ratio of AAGCATGGGA is 1.01

Further cases:
The reported ATP switch fluorescence ratio of GAGAAATGGG is 1.07

The reported ATP switch fluorescence ratio of TGCTGTGGAA is 1.01

The reported ATP switch fluorescence ratio of TTAAAAGGTT is 1.01
